test: Biodistribution in male ddY mouse liver administered intravenously and measured at 60 mins postinjection by gamma counter analysis; type: ADME, organism-based; settings: in vivo, iv, 1 h
The compounds listed here are annotated with their Drug uptake.
ATTRIBUTE_MEASURED: Drug uptake (% ID/g)

[[record]]
structure_string = "Cc1ccc(-n2nccn2)c(C(=O)N2CCCN(c3nc4cc([18F])ccc4s3)C[C@@H]2C)c1"
meas_value = 4.12

[[record]]
structure_string = "C[C@H]1CN(c2nc3ccc(F)cc3s2)CCCN1C(=O)c1cc([18F])ccc1-n1nccn1"
meas_value = 12.6

[[record]]
structure_string = "C[C@H]1CN(c2nc3ccccc3s2)CCCN1C(=O)c1cc([18F])ccc1-n1nccn1"
meas_value = 10.8

[[record]]
structure_string = "Cc1ccc(-n2nccn2)c(C(=O)N2CCCN(c3nc4ccc([18F])cc4s3)C[C@@H]2C)c1"
meas_value = 7.53


###

test: Biodistribution in male ddY mouse blood administered intravenously and measured at 10 mins postinjection by gamma counter analysis; format: ADME, organism-based; details: in vivo, iv
ATTRIBUTE_MEASURED: Drug uptake (% ID/g)

[[record]]
structure_string = "Cc1ccc(-n2nccn2)c(C(=O)N2CCCN(c3nc4cc([18F])ccc4s3)C[C@@H]2C)c1"
attribute_measured = "Drug uptake"
meas_value = 3.87

[[record]]
structure_string = "Cc1ccc(-n2nccn2)c(C(=O)N2CCCN(c3nc4ccc([18F])cc4s3)C[C@@H]2C)c1"
attribute_measured = "Drug uptake"
meas_value = 2.91

[[record]]
structure_string = "C[C@H]1CN(c2nc3ccccc3s2)CCCN1C(=O)c1cc([18F])ccc1-n1nccn1"
attribute_measured = "Drug uptake"
meas_value = 3.2

[[record]]
structure_string = "C[C@H]1CN(c2nc3ccc(F)cc3s2)CCCN1C(=O)c1cc([18F])ccc1-n1nccn1"
attribute_measured = "Drug uptake"
meas_value = 3.05


###

experiment: Biodistribution in male ddY mouse blood administered intravenously and measured at 30 mins postinjection by gamma counter analysis; type: ADME, organism-based; conditions: in vivo, iv, 0.5 h
# Drug uptake annotations
ATTRIBUTE_MEASURED: Drug uptake

[[record]]
structure_string = "Cc1ccc(-n2nccn2)c(C(=O)N2CCCN(c3nc4cc([18F])ccc4s3)C[C@@H]2C)c1"
meas_value = "2.2 % ID/g"

[[record]]
structure_string = "C[C@H]1CN(c2nc3ccccc3s2)CCCN1C(=O)c1cc([18F])ccc1-n1nccn1"
meas_value = "1.74 % ID/g"

[[record]]
structure_string = "Cc1ccc(-n2nccn2)c(C(=O)N2CCCN(c3nc4ccc([18F])cc4s3)C[C@@H]2C)c1"
meas_value = "1.44 % ID/g"

[[record]]
structure_string = "C[C@H]1CN(c2nc3ccc(F)cc3s2)CCCN1C(=O)c1cc([18F])ccc1-n1nccn1"
meas_value = "1.1 % ID/g"


###

molecular target: Orexin receptor type 2 (Homo sapiens, UniProt O43614); assay: Displacement of […]5IBOM from OX2R (unknown origin) transfected in CHO cells assessed as inhibition constant incubated for 1.5 hrs by automated gamma-counter analysis; format: cell-based
Sequence (O43614 whole entry): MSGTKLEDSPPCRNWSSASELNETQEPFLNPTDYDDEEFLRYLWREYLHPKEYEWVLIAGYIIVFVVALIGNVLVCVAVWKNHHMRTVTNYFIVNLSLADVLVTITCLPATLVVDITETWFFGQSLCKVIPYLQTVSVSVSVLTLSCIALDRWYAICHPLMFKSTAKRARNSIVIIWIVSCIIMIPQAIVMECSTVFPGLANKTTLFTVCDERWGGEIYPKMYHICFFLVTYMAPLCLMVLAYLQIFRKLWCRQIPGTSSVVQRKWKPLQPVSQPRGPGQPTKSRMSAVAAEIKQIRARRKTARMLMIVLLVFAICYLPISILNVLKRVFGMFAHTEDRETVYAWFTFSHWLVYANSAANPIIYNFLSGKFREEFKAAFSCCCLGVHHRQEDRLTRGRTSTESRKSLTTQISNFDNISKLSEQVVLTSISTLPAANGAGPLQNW
pKi: −log10 of the molar value.
ATTRIBUTE_MEASURED: pKi

[[record]]
structure_string = "Cc1ccc(-n2nccn2)c(C(=O)N2CCCN(c3nc4cc(F)ccc4s3)C[C@@H]2C)c1"
attribute_measured = "pKi"
meas_value = 7.89

[[record]]
structure_string = "Cc1ccc(-n2nccn2)c(C(=O)N2CCCN(c3nc4ccc(F)cc4s3)C[C@@H]2C)c1"
attribute_measured = "pKi"
meas_value = 7.69

[[record]]
structure_string = "C[C@H]1CN(c2nc3ccc(F)cc3s2)CCCN1C(=O)c1cc(C(F)(F)F)ccc1-n1nccn1"
attribute_measured = "pKi"
meas_value = 7.72

[[record]]
structure_string = "C[C@H]1CN(c2nc3ccc(F)cc3s2)CCCN1C(=O)c1cc(F)ccc1-n1nccn1"
attribute_measured = "pKi"
meas_value = 7.81

[[record]]
structure_string = "Cc1ccc(-n2nccn2)c(C(=O)N2CCCN(c3nc4cc(Cl)ccc4o3)C[C@@H]2C)c1"
attribute_measured = "pKi"
meas_value = 8.01

